Assay: Acute toxicity
Assay type: in vivo
Details: os; mortality 10 days after treatment; mice
Listing: LD50 (reliability limits) of selected molecules

# molecule, LD50 (reliability limits)
measured = [
    ("CC[C@H]1OC(=O)[C@H](C)[C@@H](O[C@H]2C[C@@](C)(OC)[C@@H](O)[C@H](C)O2)[C@H](C)[C@@H](O[C@@H]2O[C@H](C)C[C@H](N(C)C)[C@H]2O)[C@](C)(O)C[C@@H](C)C(=O)[C@H](C)[C@@H](O)[C@]1(C)O [RV04, erythromycin-S-carboxymethylcysteinate]", "> 3000 mg·kg"),
    ("CC[C@H]1OC(=O)[C@H](C)[C@@H](O[C@H]2C[C@@](C)(OC)[C@@H](O)[C@H](C)O2)[C@H](C)[C@@H](O[C@@H]2O[C@H](C)C[C@H](N(C)C)[C@H]2O)[C@](C)(O)C[C@@H](C)C(=O)[C@H](C)[C@@H](O)[C@]1(C)O [RV01, erythromycin alpha-mercaptosuccinate]", "> 3000 mg·kg"),
    ("CC[C@H]1OC(=O)[C@H](C)[C@@H](O[C@H]2C[C@@](C)(OC)[C@@H](O)[C@H](C)O2)[C@H](C)[C@@H](O[C@@H]2O[C@H](C)C[C@H](N(C)C)[C@H]2O)[C@](C)(O)C[C@@H](C)C(=O)[C@H](C)[C@@H](O)[C@]1(C)O [RV05, erythromycin-N-acetylcysteinate]", "> 3000 mg·kg"),
    ("CC[C@H]1OC(=O)[C@H](C)[C@@H](O[C@H]2C[C@@](C)(OC)[C@@H](O)[C@H](C)O2)[C@H](C)[C@@H](O[C@@H]2O[C@H](C)C[C@H](N(C)C)[C@H]2O)[C@](C)(O)C[C@@H](C)C(=O)[C@H](C)[C@@H](O)[C@]1(C)O [RV03, erythromycyn-thiazolidin-carboxylate]", "> 3000 mg·kg"),
]
